- method: Oral bioavailability in cynomolgus monkey at 10 mg/kg
- Assay type: ADME, organism-based, Macaca fascicularis
- reportedConditions: in vivo
experimentalReadout: bioavailability (%)
Just the number please, in %, no unit attached.

The compound O=C(O)C1CN(Cc2ccc(-c3nc4cc(Cc5ccccc5F)ccc4s3)c(F)c2)C1 showed bioavailability equal to 23

----------
- systemName: Sphingosine 1-phosphate receptor 3 (Homo sapiens, UniProt Q99500)
- Sequence (Q99500 whole entry): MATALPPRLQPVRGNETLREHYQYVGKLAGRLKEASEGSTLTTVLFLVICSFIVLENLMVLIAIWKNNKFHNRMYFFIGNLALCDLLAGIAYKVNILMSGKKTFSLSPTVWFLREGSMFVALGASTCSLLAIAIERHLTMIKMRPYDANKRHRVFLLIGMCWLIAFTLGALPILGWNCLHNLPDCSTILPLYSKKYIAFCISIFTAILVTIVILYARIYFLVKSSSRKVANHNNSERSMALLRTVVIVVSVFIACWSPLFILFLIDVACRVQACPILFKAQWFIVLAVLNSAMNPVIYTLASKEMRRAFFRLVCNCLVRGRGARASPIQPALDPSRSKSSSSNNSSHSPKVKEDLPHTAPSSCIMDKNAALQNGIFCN
- method: Agonist activity at human S1P3 receptor expressed in CHO-K1 cells co-expressing Gq/i5 G-protein assessed as calcium mobilization by FLIPR assay relative to S1P
- Assay type: functional, cell-based
experimentalReadout: Efficacy (%)
Field format: number, assumed %, no unit text.

Recorded Efficacy, per entry:
[[record]]
smilesrepresentation = "O=C(O)C1CN(Cc2ccc(-c3nc4cc(Cc5cccc(Cl)c5)ccc4s3)c(F)c2)C1"
result = 35

[[record]]
smilesrepresentation = "O=C(O)C1CN(Cc2ccc(-c3nc4cc(Cc5ccc(F)cc5F)ccc4s3)c(F)c2)C1"
result = 24

[[record]]
smilesrepresentation = "O=C(O)C1CN(Cc2ccc(-c3cn4ccc(Cc5ccccc5)cc4n3)c(F)c2)C1"
result = 50

[[record]]
smilesrepresentation = "O=C(O)C1CN(Cc2ccc(-c3cc4cc(Cc5ccccc5)ccc4o3)c(F)c2)C1"
result = 42

[[record]]
smilesrepresentation = "Cc1ccc(Cc2ccc3sc(-c4ccc(CN5CC(C(=O)O)C5)cc4F)nc3c2)cc1"
result = 17

[[record]]
smilesrepresentation = "O=C(O)C1CN(Cc2ccc(-c3nc4cc(Cc5ccc(F)c(F)c5)ccc4s3)c(F)c2)C1"
result = 19

[[record]]
smilesrepresentation = "O=C(O)C1CN(Cc2ccc(-n3cc4cc(Cc5ccccc5)ccc4n3)c(F)c2)C1"
result = 43

[[record]]
smilesrepresentation = "O=C(O)C1CN(Cc2ccc(-c3nc4cc(Cc5ccccc5Cl)ccc4s3)c(F)c2)C1"
result = 41

[[record]]
smilesrepresentation = "O=C(O)C1CN(Cc2ccc(-c3nc4cc(Cc5ccccc5)ccc4o3)c(F)c2)C1"
result = 77

[[record]]
smilesrepresentation = "O=C(O)C1CN(Cc2ccc(-c3nc4ccc(Cc5ccccc5)cc4s3)c(F)c2)C1"
result = 50


// Efficacy lookup, compound = O=C(O)C1CN(Cc2ccc(-n3cc4ccc(Cc5ccccc5)cc4n3)c(F)c2)C1 , result: 48

Lab note: O=C(O)C1CN(Cc2ccc(-c3nc4cc(Cc5ccccc5F)ccc4s3)c(F)c2)C1 gave Efficacy of 14

Record summary for O=C(O)C1CN(Cc2ccc(-c3nc4cc(Cc5cccc(F)c5)ccc4s3)c(F)c2)C1 : reported Efficacy = 22

----------
- System: Cynomolgus monkey
- method: Liver blood flow in cynomolgus monkey at 4 mg/kg, iv and 10 mg/kg, po
- Type: ADME, organism-based, Macaca fascicularis
- reportedConditions: in vivo
experimentalReadout: LBF (%)
Express it in %; write the number only.

Please fill in: LBF reported for O=C(O)C1CN(Cc2ccc(-c3nc4cc(Cc5ccccc5F)ccc4s3)c(F)c2)C1 = 19

----------
- systemName: Sphingosine 1-phosphate receptor 1 (Homo sapiens, UniProt P21453)
- Sequence (P21453 whole entry): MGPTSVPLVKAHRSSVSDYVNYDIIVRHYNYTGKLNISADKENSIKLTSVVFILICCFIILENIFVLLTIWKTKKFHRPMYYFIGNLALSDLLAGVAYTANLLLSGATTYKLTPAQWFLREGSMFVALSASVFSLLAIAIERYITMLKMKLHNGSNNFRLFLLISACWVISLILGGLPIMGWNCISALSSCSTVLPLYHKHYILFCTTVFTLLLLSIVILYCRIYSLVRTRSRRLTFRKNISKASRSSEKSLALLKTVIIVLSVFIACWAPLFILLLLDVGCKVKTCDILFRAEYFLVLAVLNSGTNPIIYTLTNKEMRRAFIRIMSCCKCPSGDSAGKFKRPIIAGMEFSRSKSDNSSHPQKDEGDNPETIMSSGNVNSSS
- method: Agonist activity at human S1P1 receptor expressed in human U2OS cells co-expressing eGFP assessed as receptor internalization after 1 hr relative to 1-(4-(6-benzylbenzofuran-2-yl)-3-fluorobenzyl)azetidine-3-carboxylic acid
- Format: functional, cell-based
experimentalReadout: Efficacy (%)
The reply should be a number in %, with the unit left off.

[[record]]
smilesrepresentation = "O=C(O)C1CN(Cc2ccc(-c3cn4cc(Cc5ccccc5)ccc4n3)c(F)c2)C1"
result = 115

[[record]]
smilesrepresentation = "Cc1ccc(Cc2ccc3sc(-c4ccc(CN5CC(C(=O)O)C5)cc4F)nc3c2)cc1"
result = 132

[[record]]
smilesrepresentation = "O=C(O)C1CN(Cc2ccc(-c3nc4cc(Cc5ccccc5)ccc4o3)c(F)c2)C1"
result = 105


The reported Sphingosine 1-phosphate receptor 1 (Homo sapiens, UniProt P21453) Efficacy of O=C(O)C1CN(Cc2ccc(-c3nc4cc(Cc5c(F)cccc5F)ccc4s3)c(F)c2)C1 is 126

Result for O=C(O)C1CN(Cc2ccc(-c3nc4cc(Cc5ccc(F)c(F)c5)ccc4s3)c(F)c2)C1 , tested on Sphingosine 1-phosphate receptor 1 (Homo sapiens, UniProt P21453), Efficacy: 151

With Sphingosine 1-phosphate receptor 1 (Homo sapiens, UniProt P21453) as the test system, Cc1ccccc1Cc1ccc2sc(-c3ccc(CN4CC(C(=O)O)C4)cc3F)nc2c1 showed Efficacy of 118

Summary: O=C(O)C1CN(Cc2ccc(-c3cn4ccc(Cc5ccccc5)cc4n3)c(F)c2)C1 , Sphingosine 1-phosphate receptor 1 (Homo sapiens, UniProt P21453), Efficacy = 110

----------
// reported Efficacy per item
- systemName: Sphingosine 1-phosphate receptor 3 (Homo sapiens)
- method: Agonist activity at human S1P3 receptor expressed in CHO-K1 cells co-expressing Gq/i5 G-protein assessed as calcium mobilization by FLIPR assay relative to S1P
- Type: functional, cell-based
Express your answer in %, writing the number without its unit.

For orientation, consider the following solved cases.
[[record]]
smilesrepresentation = "O=C(O)C1CN(Cc2ccc(-c3nc4ccc(Cc5ccccc5)cc4o3)c(F)c2)C1"
systemname = "Sphingosine 1-phosphate receptor 3 (Homo sapiens)"
result = 87

[[record]]
smilesrepresentation = "O=C(O)C1CN(Cc2ccc(-c3cc4ccc(Cc5ccccc5)cc4o3)c(F)c2)C1"
systemname = "Sphingosine 1-phosphate receptor 3 (Homo sapiens)"
result = 42

[[record]]
smilesrepresentation = "O=C(O)C1CN(Cc2ccc(-c3nc4cc(Cc5ccccc5)ccc4s3)c(F)c2)C1"
systemname = "Sphingosine 1-phosphate receptor 3 (Homo sapiens)"
result = 24


Short answer for Cc1ccccc1Cc1ccc2sc(-c3ccc(CN4CC(C(=O)O)C4)cc3F)nc2c1 : Efficacy was 40

// Efficacy lookup, compound = O=C(O)C1CN(Cc2ccc(-c3nc4cc(Cc5ccc(F)cc5)ccc4s3)c(F)c2)C1 , result: 37

----------
- method: Volume of distribution at steady state in Sprague-Dawley rat at 2 mg/kg, iv and 15 mg/kg, po
- Format: ADME, organism-based
- reportedConditions: in vivo, read-out: Vdss
experimentalReadout: Vd
Kindly report the value followed by its unit.

Field Vd (entry O=C(O)C1CN(Cc2ccc(-c3nc4cc(Cc5ccccc5F)ccc4s3)c(F)c2)C1 ) reads 3.3 L/kg

----------
- method: Mean residence time in Sprague-Dawley rat at 2 mg/kg, iv and 15 mg/kg, po
- Type: ADME, organism-based
- reportedConditions: in vivo
experimentalReadout: MRT (h)
Only the number, expressed in h, is required.

# molecule O=C(O)C1CN(Cc2ccc(-c3nc4cc(Cc5ccccc5F)ccc4s3)c(F)c2)C1 ; its MRT = 10

----------
- systemName: UniProt:Q99500
- method: Agonist activity at human S1P3 receptor expressed in CHO-K1 cells co-expressing Gq/i5 G-protein assessed as calcium mobilization by FLIPR assay
experimentalReadout: EC50

[[record]]
smilesrepresentation = "O=C(O)C1CN(Cc2ccc(-c3cn4cc(Cc5ccccc5)ccc4n3)c(F)c2)C1"
experimentalreadout = "EC50"
result = "> 25 µM"


Value of EC50 reported for the molecule O=C(O)C1CN(Cc2ccc(-c3nc4cc(Cc5ccccc5)ccc4o3)c(F)c2)C1 is 0.354 µM

So, O=C(O)C1CN(Cc2ccc(-c3cn4ccc(Cc5ccccc5)cc4n3)c(F)c2)C1 ? Its EC50 was 6.09 µM

// sample O=C(O)C1CN(Cc2ccc(-n3cc4ccc(Cc5ccccc5)cc4n3)c(F)c2)C1 , its EC50 was 2.71 µM

# molecule O=C(O)C1CN(Cc2ccc(-c3nc4cc(Cc5ccc(Cl)cc5)ccc4s3)c(F)c2)C1 ; its EC50 = > 25 µM

EC50 for O=C(O)C1CN(Cc2ccc(-c3nc4cc(Cc5ccccc5Cl)ccc4s3)c(F)c2)C1 is 4.88 µM

So for O=C(O)C1CN(Cc2ccc(-n3cc4cc(Cc5ccccc5)ccc4n3)c(F)c2)C1 , the logged EC50 turned out to be 1.11 µM

----------
- method: Oral bioavailability in Sprague-Dawley rat at 15 mg/kg
- Type: ADME, organism-based
- reportedConditions: in vivo
experimentalReadout: bioavailability (%)
Lab book: enter the figure in %, no units written.

For reference, reported bioavailability for O=C(O)C1CN(Cc2ccc(-c3nc4cc(Cc5ccccc5F)ccc4s3)c(F)c2)C1 stands at 68

----------
- systemName: Sphingosine 1-phosphate receptor 3 (Homo sapiens)
- method: Agonist activity at human S1P3 receptor expressed in CHO-K1 cells co-expressing Gq/i5 G-protein assessed as calcium mobilization by FLIPR assay
- Format: functional, cell-based
molecules and their reported EC50

Example entries begin here.
[[record]]
smilesrepresentation = "O=C(O)C1CN(Cc2ccc(-c3nc4ccc(Cc5ccccc5)cc4[nH]3)c(F)c2)C1"
result = "> 25000 nM"

[[record]]
smilesrepresentation = "O=C(O)C1CN(Cc2ccc(-c3nc4cc(Cc5ccc(F)c(F)c5)ccc4s3)c(F)c2)C1"
result = "967 nM"

[[record]]
smilesrepresentation = "O=C(O)C1CN(Cc2ccc(-c3nc4cc(Cc5cccc(F)c5)ccc4s3)c(F)c2)C1"
result = "687 nM"

[[record]]
smilesrepresentation = "O=C(O)C1CN(Cc2ccc(-c3nc4cc(Cc5ccccc5F)ccc4s3)c(F)c2)C1"
result = "3470 nM"


Query O=C(O)C1CN(Cc2ccc(-c3cc4cc(Cc5ccccc5)ccc4o3)c(F)c2)C1 yields EC50 of 1730 nM
